Data provenance is PubChem BioAssay (NCI).

Test system: CAKI-1 renal
Experiment: NCI tumour cell line growth inhibition, 48 h
recorded.metric: TGI

Ask: GET /values?readout=TGI&item= CC(C)(C)OC(=O)NC(Cc1ccc(O)cn1)C(N)=O (configuration not stated)
Reply: > 100 µM

Ask: Okay, and CS(=O)(=O)OCCN1CCN(C(=O)c2cccc3c(Nc4ccc(S(N)(=O)=O)cc4)c4ccccc4nc23)CC1 ?
Reply: > 100 µM

Ask: Okay, and S=c1nc2[nH]c3ccc(Br)cc3c2n[nH]1 ?
Reply: > 100 µM

Ask: Okay, and Cc1cc(N=Cc2c(CO)cnc(C)c2O)c(N=Cc2c(CO)cnc(C)c2O)cc1C.[Zn] ?
Reply: > 100 µM

Ask: Okay, and Cc1ccc(-n2c(O)c3c(N)n[nH]c3c(C#N)c2=O)cc1 ?
Reply: > 100 µM

Ask: Okay, and OCC(Cn1cncn1)(c1ccc(F)cc1F)n1cncn1 (configuration not stated) ?
Reply: > 100 µM

Ask: Okay, and O=C1O[C@H](C(Cl)(Cl)Cl)N2CCCC12 (some centres not stated) ?
Reply: > 100 µM

Ask: Okay, and Nc1ccc(-c2nc3cc(F)ccc3s2)cc1I ?
Reply: 72.5 µM

Ask: Okay, and Fc1ccc(C2CC(c3cccc(Nc4ccncc4)c3)=NN2c2cc(Cl)cc(Cl)c2)cc1 (configuration not stated) ?
Reply: 2.92 µM

Ask: Okay, and COc1cc(/C=C2\N=C(c3ccccc3)N(/N=C3\C(=O)Nc4ccccc43)C2=O)cc(OC)c1OC ?
Reply: > 100 µM

Ask: Okay, and Cc1[nH]c(C(=O)Nc2ccc(C(=O)N3CCNCC3)cc2OC(C)C)c(Cl)c1Cl ?
Reply: 15.1 µM

Ask: Okay, and Cn1c(=O)c(Oc2cccc(F)c2)cc2cnc(NC3CCOCC3)nc21 ?
Reply: > 25 µM

Ask: Okay, and N#Cc1c(N2CCCC2)ncn(Cc2ccccc2)c1=S ?
Reply: > 100 µM

Ask: Okay, and OCCN(CCO)c1cccc(N(CCO)CCO)c1 ?
Reply: > 100 µM

Ask: Okay, and CNS(=O)(=O)NN(C)S(=O)(=O)c1ccc(Cl)cc1 ?
Reply: > 100 µM

Ask: Okay, and CCCCCCOc1ccc(/C=N/NC(N)=S)cc1 ?
Reply: 5.71 µM

Ask: Okay, and COc1ccccc1NC(=S)N/N=C(/C)c1ccccn1 ?
Reply: > 100 µM

Ask: Okay, and CCOC(=O)C(=O)C1C(=O)Nc2ccccc21 (configuration not stated) ?
Reply: > 100 µM

Ask: Okay, and N#Cc1c2ccccc2c2n1-c1ccccc1OC(c1ccccc1)C2=O (configuration not stated) ?
Reply: 13.7 µM

Ask: Okay, and CCc1nn(S(=O)(=O)c2ccc(C)cc2)c2c1CS(=O)(=O)CC2 ?
Reply: > 100 µM

Ask: Okay, and O=C(Nc1ccc(Cl)cc1)c1cc2c(cc1O)[nH]c1ccccc12 ?
Reply: 6.02 µM

Ask: Okay, and CN(C)CCOC(=O)c1ccc(N)cc1 ?
Reply: > 100 µM

Ask: Okay, and CN(C)c1ccc(/C=C/C(=O)C(C)(C)C)cc1Br ?
Reply: 91.9 µM

Ask: Okay, and CC(=O)OCc1cc(=O)n(C)c2c3c4c(cc12)c(C)cc(=O)n4CO3 ?
Reply: 33.9 µM

Ask: Okay, and O=C(Cn1c(=O)c(-c2ccccc2)nc2ccccc21)c1cccnc1 ?
Reply: > 100 µM

Ask: Okay, and O=c1[nH]c2ccccc2nc1/C=C(\O)C(F)F ?
Reply: > 100 µM

Ask: Okay, and Cc1ccc(C(=O)O/N=C2/CCCCC2CN(C)C)cc1 (configuration not stated) ?
Reply: > 100 µM

Ask: Okay, and CC1CCC2(NC1)OC1CC3[C@@H]4CC=C5C=CCC[C@]5(C)C4CC[C@]3(C)C1C2C (some centres not stated) ?
Reply: > 100 µM

Ask: Okay, and CS(=O)(=O)N(CCC#N)c1ccc(/C=N/NC(=O)CC(=O)Nc2cccc(Cl)c2)cc1 ?
Reply: > 100 µM

Ask: Okay, and O=C1c2ccccc2-c2nccc3cc(Cl)nc1c23 ?
Reply: > 100 µM

Ask: Okay, and COc1ccccc1/C=C1\CCC(CNc2ccc(Cl)cc2)C1=O (configuration not stated) ?
Reply: 13.6 µM

Ask: Okay, and OCc1cccc(-c2ccc3ncc(-c4nc(NC5CC5)ncc4F)n3c2)c1 ?
Reply: 1.65 µM

Ask: Okay, and O=c1[nH]cnc2c1nnn2C1OC(CO)C(O)C1O (configuration not stated) ?
Reply: > 45.1 µM

Ask: Okay, and C=CCC12CCC(=O)C=C1CCC1(C2)OCCO1 (configuration not stated) ?
Reply: > 100 µM

Ask: Okay, and COC(=O)/C=C\C(C#N)(C#N)N=Cc1ccc(C)s1 ?
Reply: 4.78 µM

Ask: Okay, and CCOC(=O)CCc1c(C(=O)OCC)[nH]c(/C=C2\NC(=O)C(C)=C2CC)c1C ?
Reply: 78.7 µM

Ask: Okay, and CCCC(CC)c1c(O)c(O)c(C(CC)CCC)c(C(CC)CCC)c1C(CC)CCC (configuration not stated) ?
Reply: > 10 µM

Ask: Okay, and CC1=C(SCc2ccccc2)C(=O)c2ccccc2C1=O ?
Reply: 26.2 µM

Ask: Okay, and N#CC(C#N)=Cc1c(O)ccc2ccccc12 ?
Reply: 29.1 µM

Ask: Okay, and Cn1ccnc1C(c1nccn1C)C(C)(C)[N+](=O)[O-] ?
Reply: > 100 µM

Ask: Okay, and COc1ccc(Nc2ccnc(NCCNc3ccnc4cc(Cl)ccc34)n2)cc1 ?
Reply: 4.57 µM

Ask: Okay, and C[C@]12CC/C(=N\N)C[C@@H]1CC[C@@H]1[C@@H]2CC[C@]2(C)/C(=N/N)CC[C@@H]12 ?
Reply: > 100 µM
